# maps each entry to its GI50
Tested on: HCC 2998
assay overview: NCI tumour cell line growth inhibition, 48 h
Active and inactive are the calls of the source. Cut-off read from the data, not from the text of the source: active = GI50 up to about 1.1 µM and inactive = higher.

[[record]]
compound = "COc1ccc(-c2cc(-c3cc(Cl)cc(Br)c3O)nc(O)n2)cc1"
measured_result = "19.9 µM (inactive)"


Q) Determine its reported GI50: O=c1cc(-c2ccc(Cl)cc2)oc2cc(OCCCOc3ccc4c(=O)cc(-c5ccc(Cl)cc5)oc4c3)ccc12
A) > 100 µM (inactive)

Q) Supply recorded GI50 for Nc1ncn([C@H]2C[C@H](O)[C@@H](CO)O2)c(=O)n1 [DECITABINE] here.
A) 105 µM (inactive)

Q) # return recorded GI50 for input COc1ccc2c(c1)C(=O)OCCC2
A) > 100 µM (inactive)

Q) Give the reported GI50 for this compound. CC/C(SC)=[N+](\C)[O-]
A) > 100 µM (inactive)

Q) Note GI50 for the compound shown: NC1=Nc2ccccc2Sc2nncn21
A) > 100 µM (inactive)

Q) Tell us which GI50 value is on record for COc1ccc(-c2cn3c(nc4ccccc43)c(/C=C/c3cccs3)n2)cc1
A) 49.5 µM (inactive)

Q) Fill in GI50 for record CN(C)C(=O)N(CCCl)N=O
A) > 100 µM (inactive)

Q) Determine its reported GI50: N#[N+][c-]1c(-c2ccccc2)n[nH]c1=O
A) > 100 µM (inactive)

Q) Please report GI50 for the following compound: NCCCCN(CCCN)Cc1ccc2ccccc2c1
A) 10.6 µM (inactive)
